test: BBB-PAMPA (parallel artificial membrane permeability assay); details: PAMPA
measurement name: recovery at 4 h, 10 µM (%)
Use % as the unit, but write only the number.

Recorded recovery at 4 h, 10 µM for CC(C)NCC(O)COc1cccc2ccccc12 (centres unmarked) [Propranolol] , please?
82.4

* * *

test system: CYP 3A; assay: CYP inhibition (direct)
measurement name: IC50

Recorded IC50 for COc1cc(C=CCOC2Cc3cc4ccc(=O)oc4cc3OC2(C)C)ccc1[N+](=O)[O-] (stereo not shown) [PRG-A-04] , please?
> 10 µM

* * *

target: CYP 2C9 (Homo sapiens, UniProt P11712)
Sequence (P11712 whole entry): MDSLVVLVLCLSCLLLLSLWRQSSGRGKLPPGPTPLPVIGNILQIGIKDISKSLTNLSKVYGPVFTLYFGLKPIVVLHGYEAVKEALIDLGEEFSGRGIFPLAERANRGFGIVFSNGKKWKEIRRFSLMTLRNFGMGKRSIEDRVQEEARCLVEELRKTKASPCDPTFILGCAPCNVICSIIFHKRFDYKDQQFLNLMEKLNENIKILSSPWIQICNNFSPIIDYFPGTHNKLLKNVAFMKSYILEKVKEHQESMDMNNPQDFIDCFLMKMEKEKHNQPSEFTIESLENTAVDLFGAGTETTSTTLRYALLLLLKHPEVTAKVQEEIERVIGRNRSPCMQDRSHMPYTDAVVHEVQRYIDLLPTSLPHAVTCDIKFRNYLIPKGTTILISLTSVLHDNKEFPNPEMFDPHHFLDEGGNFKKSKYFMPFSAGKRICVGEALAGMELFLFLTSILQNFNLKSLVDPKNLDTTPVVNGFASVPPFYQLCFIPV
pIC50: −log10 of the molar value.
measurement name: pIC50

Recorded pIC50 for COc1cc(C=CCOC2Cc3cc4ccc(=O)oc4cc3OC2(C)C)ccc1[N+](=O)[O-] (stereo not shown) [PRG-A-04] , please?
< 5.00

FYI, the data here is from paper PMC12067741.
